Assign Relative potency loss (KD) to each entry below.
- tested.system: T1, recombinant human IL-31 (hIL-31, BHK produced, A1277F, zcytor17lig CEE) (human, UniProt Q6EBC2 24-164)
- T1 construct: also called recombinant hIL-31
- T1 sequence: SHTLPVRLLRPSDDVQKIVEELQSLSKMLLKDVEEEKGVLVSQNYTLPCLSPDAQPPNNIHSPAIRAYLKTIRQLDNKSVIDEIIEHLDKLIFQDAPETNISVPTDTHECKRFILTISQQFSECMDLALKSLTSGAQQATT
- measurement.description: SPR (Biacore), against parent 292.12.3.1

(Q) Fill in the blank: the reported Relative potency loss (KD) of humanized 292.12.3.1 construct clone 23 (12VH5-gly + HC(fback) + LC(D70Q, F71Y, T72S)) (antibody, human IgG4, V domains shown) VH: EVQLVQSGAEVKKPGESLKISCKASGYTLTRYWMQWVRQMPGKGLEWMGAIYPGDGDTRYSPSFQGQVTLTADKSISTAYLQWSSLKASDTAMYYCAFPDGYYAAPYGMDYWGQGTTVTVSS VL: DIQMTQSPSSLSASVGDRVTITCRASGNIHNYLAWYQQKPGKVPKLLIYNAKTLADGVPSRFSGSGSGTQYSLTISSLQPEDVATYYCQHFWSTPWTFGQGTKVEIKR is ____.
(A) ~0.6 x to parent

(Q) Fill in the blank: the reported Relative potency loss (KD) of humanized 292.12.3.1 construct clone 10 (12VH1-gly + LC(fback)) (antibody, human IgG4, V domains shown) VH: QVQLVQSGAEVKKPGASVKVSCKASGYTFTRYWMQWVRQAPGQGLEWMGAIYPGDGDTRYSQKFQGRVTMTRDTSISTVYMELSSLRSEDTAVYYCARPDGYYAAPYGMDYWGQGTLVTVSS VL: DIQMTQSPSSLSASVGDRVTITCRASGNIHNYLAWYQQKPGKVPKLLIYNAKTLADGVPSRFSGSRSETQYSLTISSLQPEDVATYYCQHFWSTPWTFGQGTKVEIKR is ____.
(A) ~85 x to parent

(Q) Fill in the blank: the reported Relative potency loss (KD) of humanized 292.12.3.1 construct clone 36 (12VH1(germ)-gly + HC(F29L, T73K, R94F) + LC(F71Y)) (antibody, human IgG4, V domains shown) VH: QVQLVQSGAEVKKPGASVKVSCKASGYTLTRYWMQWVRQAPGQGLEWMGAIYPGDGDTRYSQKFQGRVTMTRDKSTSTVYMELSSLRSEDTAVYYCAFPDGYYAAPYGMDYWGQGTLVTVSS VL: DIQMTQSPSSLSASVGDRVTITCRASGNIHNYLAWYQQKPGKVPKLLIYNAKTLADGVPSRFSGSGSGTDYTLTISSLQPEDVATYYCQHFWSTPWTFGQGTKVEIKR is ____.
(A) ~0.5 x to parent

(Q) Fill in the blank: the reported Relative potency loss (KD) of humanized 292.12.3.1 construct clone 35 (12VH1-gly + HC(F29L, R94F)) (antibody, human IgG4, V domains shown) VH: QVQLVQSGAEVKKPGASVKVSCKASGYTLTRYWMQWVRQAPGQGLEWMGAIYPGDGDTRYSQKFQGRVTMTRDTSISTVYMELSSLRSEDTAVYYCAFPDGYYAAPYGMDYWGQGTLVTVSS VL: DIQMTQSPSSLSASVGDRVTITCRASGNIHNYLAWYQQKPGKVPKLLIYNAKTLADGVPSRFSGSGSGTDFTLTISSLQPEDVATYYCQHFWSTPWTFGQGTKVEIKR is ____.
(A) ~0.7 x to parent

(Q) Fill in the blank: the reported Relative potency loss (KD) of humanized 292.12.3.1 construct clone 32 (12VH1-gly + HC(F29L, R71A, V78A, R94F) + LC(F71Y)) (antibody, human IgG4, V domains shown) VH: QVQLVQSGAEVKKPGASVKVSCKASGYTLTRYWMQWVRQAPGQGLEWMGAIYPGDGDTRYSQKFQGRVTMTADTSISTAYMELSSLRSEDTAVYYCAFPDGYYAAPYGMDYWGQGTLVTVSS VL: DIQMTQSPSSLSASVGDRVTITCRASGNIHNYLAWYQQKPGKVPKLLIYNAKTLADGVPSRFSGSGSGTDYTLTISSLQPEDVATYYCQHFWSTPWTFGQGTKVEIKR is ____.
(A) ~0.3 x to parent

Source: patent US20200262913A1
